Data origin, for the record: patent US20260297542A1

Target: His-TEV-AtPP01 ΔcTP V030 (SEQ ID NO: 374) (Arabidopsis thaliana, UniProt P55826, S305L/Y426V)
Construct: with cTPs removed; made in house; host or cells: E. coli BL21 (DE3), His GraviTrap, partially purified
Sequence (P55826 with tags, fused parts or gaps S305L/Y426V): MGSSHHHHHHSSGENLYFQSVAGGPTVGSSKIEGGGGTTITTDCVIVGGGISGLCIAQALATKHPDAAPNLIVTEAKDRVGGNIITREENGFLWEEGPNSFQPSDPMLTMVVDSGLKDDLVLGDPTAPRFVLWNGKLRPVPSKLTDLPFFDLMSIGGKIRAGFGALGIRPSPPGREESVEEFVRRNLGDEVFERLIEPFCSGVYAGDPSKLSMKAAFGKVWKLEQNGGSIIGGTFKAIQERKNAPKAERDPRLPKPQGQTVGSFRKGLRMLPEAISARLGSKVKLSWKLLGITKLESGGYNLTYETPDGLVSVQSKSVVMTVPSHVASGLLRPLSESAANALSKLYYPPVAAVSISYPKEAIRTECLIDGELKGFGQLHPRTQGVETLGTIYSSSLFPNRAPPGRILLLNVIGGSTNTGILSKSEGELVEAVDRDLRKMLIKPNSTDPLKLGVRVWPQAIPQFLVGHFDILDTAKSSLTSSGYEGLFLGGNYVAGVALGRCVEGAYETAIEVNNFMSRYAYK
Assay: PPO fluorescence IC50 assay, partially purified enzyme
Assay type: biochemical
The label is yes for IC50 below 100 nM and no for IC50 equal to or exceeding 100 nM.

molecule	class-label
C#CCN1C(=O)C(F)(F)Oc2cc(F)c(-n3c(=O)n(C)c(=S)n(C)c3=O)cc21 [Herbicide B, trifludimoxazin]	yes
CCOC(=O)COc1ncccc1Oc1cc(-n2c(=O)cc(C(F)(F)F)n(C)c2=O)c(F)cc1Cl [Herbicide A, epyrifenacil]	no
C#CCOc1cc(-n2nc3n(c2=O)CCCC3)c(Cl)cc1Cl	no
CCOC(=O)C1(C)CC(c2cc(-n3c(=O)cc(C(F)(F)F)n(C)c3=O)c(F)cc2Cl)=NO1 (stereo not shown) [Herbicide C]	yes
CC(C)Oc1cc(-n2nc(C(C)(C)C)oc2=O)c(Cl)cc1Cl	no
CC(C)N(C)S(=O)(=O)NC(=O)c1cc(-n2c(=O)cc(C(F)(F)F)n(C)c2=O)c(F)cc1Cl [Herbicide E, saflufenacil]	no
CCOC(=O)[C@]1(C)CC(c2cc(-n3c(=O)n(C)c(=S)n(C)c3=O)c(F)cc2Cl)=NO1 [Herbicide D]	no
